B1: glmS ribozyme (parent)
chain: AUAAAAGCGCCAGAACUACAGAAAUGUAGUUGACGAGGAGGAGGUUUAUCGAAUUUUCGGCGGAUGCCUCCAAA

Variants of: B1
MEASUREMENT_NOTES: self-cleavage kobs at 640 uM GlcN6P; higher = faster cleavage; RNA array
STUDY_CONDITIONS: with glucosamine-6-phosphate
Fewer inactive variants are shown than the library holds.
MEASURED_PROPERTY: self-cleavage kobs at 640 uM GlcN6P

Okay, here is my list. What is self-cleavage kobs at 640 uM GlcN6P for each of these?
1. C11G A52C
2. C8G C10U G51U A53U
3. U49A C58A
4. C34G A39U U49G
5. G37C C68U U69G

["< 1e-05 s⁻¹", "< 1e-05 s⁻¹", "< 1e-05 s⁻¹", "< 1e-05 s⁻¹", "6e-05 s⁻¹"]

Okay, here is my list. What is self-cleavage kobs at 640 uM GlcN6P for each of these?
1. G32A C67A
2. U45C G60U
3. G9C U56G A64C

1: 0.000168 s⁻¹; 2: < 1e-05 s⁻¹; 3: < 1e-05 s⁻¹
